- testName: Ratio of drug concentration in male ICR mouse skin to plasma at 4 mg/ml, TOP measured after 0.5 hrs by LC-MS/MS analysis
- Format: ADME, cell-free
- testParameters: topical or ocular

{"molecule": "N#Cc1ccc(O[C@H]2CC[C@H](NC(=O)c3ccc(C4CCN(CC5CCCN(c6ccc(C(=O)NC7CCC(=O)NC7=O)cc6)C5)CC4)cc3)CC2)cc1Cl (stereo partly specified)", "Kp at 0.5 h": 129}

###

- testName: Cmax in male ICR mouse skin at 4 mg/ml, TOP measured after 12 hrs by LC-MS/MS analysis
- Type: ADME, tissue-based, Skin of body
- testParameters: topical or ocular

{"molecule": "N#Cc1ccc(O[C@H]2CC[C@H](NC(=O)c3ccc(C4CCN(CC5CCCN(c6ccc(C(=O)NC7CCC(=O)NC7=O)cc6)C5)CC4)cc3)CC2)cc1Cl (stereo partly specified)", "Cmax": "86700 ng/g"}
